targetEntity: T1, Soluble CD28-Ig (human, UniProt P10747 19-152, biotin-conjugated (NHS-biotin) in the labelled-ligand FACS assays)
T1 construct: extracellular domain; Bought from R&D Systems; also called sCD28-Ig; CD28-Ig Fc; not shown: Fc portion of human IgG1
measurementProtocol: two-colour FACS profile on transfected cells; score of preference for CD28-Ig over CTLA-4-Ig vs WT hB7-1
propertyMeasured: Binding Score
Give bare numbers.

binder: Round 2 CD28BP-11 (ligand) SGITPKSVTKRVKETVMLSCDYNASTEELTSLRIYWQKDSKMVLAILPGKVQVWPEYKNRTITDMNDNPRIVILALRLSDKGTYTCVVQKNENGSFRREHLTSVTLSIRADFPVPSITDIGHPAPNVKRIRCSASGGFPEPRLAWMEDGEELNAVNTTVDQDLDTELYSVSSELDFNVTNNHSIVCLIKYGELSVSQIFPWSKPKQEPPIDQLPFWVIIPVSGALVLTAVVLYCLACRHVARWKRTRRNEETVGTERLSPIYLGSAQSSG
observedValue: 2

# evaluate next
### Prompt So what's the measured Binding Score for this one? Round 2 CD28A4-5* (ligand) ITPKSVTKRVKETVMLSCDYNTSTEELTSLRIYWQKDSKMVLAILPGKVQVWPEYKNRTITDMNDNPRIVILALRLSDSGTYTCVIQKPVLKGAYKLEHLTSVRLMIRADFPVPTINDLGNPSPNIRRLICSTSGGFPRPHLYWLENGEELNATNTTLSQDPETKLYMISSELDFNVTNNHSIVCLIKYGELSVSQIFPWSKPKQEPPIDQLPFWVIIPVSGALVLTAVVLYCLACRHVARWKRTRRNEETVGTERLSPIYLGSAQSSG
### Response 1
